assay-system: Smoothened (SMO) (Mus musculus)
Construct: C3H10T1/2 cells (ATCC #CCL-226) were split and seeded; endogenous in cells; host or cells: C3H10T1/2 (ATCC #CCL-226)
Sequence (P56726 33-793): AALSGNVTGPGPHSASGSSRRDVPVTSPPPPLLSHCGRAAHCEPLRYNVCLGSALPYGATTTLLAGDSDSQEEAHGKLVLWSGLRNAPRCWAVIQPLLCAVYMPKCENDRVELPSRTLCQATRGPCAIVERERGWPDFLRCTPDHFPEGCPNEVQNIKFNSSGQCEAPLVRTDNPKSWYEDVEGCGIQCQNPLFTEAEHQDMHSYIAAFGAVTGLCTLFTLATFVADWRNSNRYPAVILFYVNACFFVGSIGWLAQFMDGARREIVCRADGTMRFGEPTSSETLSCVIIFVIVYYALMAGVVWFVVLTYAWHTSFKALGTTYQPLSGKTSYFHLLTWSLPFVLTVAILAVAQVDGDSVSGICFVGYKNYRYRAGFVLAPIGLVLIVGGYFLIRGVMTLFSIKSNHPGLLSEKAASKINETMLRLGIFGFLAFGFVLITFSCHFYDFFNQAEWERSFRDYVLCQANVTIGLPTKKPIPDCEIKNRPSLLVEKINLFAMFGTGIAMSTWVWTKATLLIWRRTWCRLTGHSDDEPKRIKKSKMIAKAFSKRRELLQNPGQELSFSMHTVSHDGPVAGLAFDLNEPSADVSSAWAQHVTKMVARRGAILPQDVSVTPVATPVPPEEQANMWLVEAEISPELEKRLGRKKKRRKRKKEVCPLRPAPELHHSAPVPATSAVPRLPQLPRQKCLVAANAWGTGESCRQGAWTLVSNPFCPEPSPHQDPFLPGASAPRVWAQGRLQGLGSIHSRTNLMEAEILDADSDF
protocol-summary: Smoothened (SMO)/Sonic Hedgehog (SHh) Transient Transcriptional Activation Assay (Gli-luciferase reporter in C3H10T1/2 cells)
Type: cell-based, murine
condition-details: C3H 10T1/2, 2 μM compound; transfected C3H10T1/2 cells, recombinant human SHh 250 ng/mL, 20 hours, luciferase readout; read-out: SMO CELL % INHIBITION @ 2 μM
Counter-ions that a name gives are not always drawn.
Each entry below carries its recorded inhibition at 2 µM.
Lab book: enter the figure in %, no units written.

Some entries whose results are on file:
{"molecule": "Cc1cc2nc([C@H]3C[C@H](NC(=O)Nc4ccc(C(F)(F)F)nc4)CCN3C)[nH]c2cc1C [Example 77, hydrochloride]", "assay-system": "Smoothened (SMO) (Mus musculus)", "measure-unit": "%", "inhibition at 2 µM": 100}
{"molecule": "CN1CC[C@@H](NC(=O)Nc2cccnc2)C[C@@H]1c1nc2ccccc2[nH]1 [Example 80, hydrochloride]", "assay-system": "Smoothened (SMO) (Mus musculus)", "measure-unit": "%", "inhibition at 2 µM": 98}
{"molecule": "CN1CC[C@@H](NC(=O)c2ccc3c(c2)OCCO3)C[C@@H]1c1nc2ccc(C(F)(F)F)cc2[nH]1 [Example 79, hydrochloride]", "assay-system": "Smoothened (SMO) (Mus musculus)", "measure-unit": "%", "inhibition at 2 µM": 99.2}
{"molecule": "CN1CC[C@@H](NC(=S)c2ccc3c(c2)OCCO3)C[C@@H]1c1nc2ccccc2[nH]1 [Example 140, hydrochloride]", "assay-system": "Smoothened (SMO) (Mus musculus)", "measure-unit": "%", "inhibition at 2 µM": 107}

Param request: inhibition at 2 µM | system Smoothened (SMO) (Mus musculus) | item CN1CC[C@@H](NC(=O)c2cc3c(cc2Cl)OCCO3)C[C@@H]1c1nc2ccccc2[nH]1
69.5

Lab note: record inhibition at 2 µM of CN1CC[C@@H](NC(=O)Cc2nc3ccccc3o2)C[C@@H]1c1nc2ccccc2[nH]1 [Example 114, trifluoroacetate] tested on Smoothened (SMO) (Mus musculus).
75.5

Provide inhibition at 2 µM, system Smoothened (SMO) (Mus musculus), entry CN1CC[C@@H](NC(=O)Nc2ccncc2)C[C@@H]1c1nc2ccccc2[nH]1 [Example 16, hydrochloride]
111

Find inhibition at 2 µM for CC(C)c1ccc(NC(=O)N[C@@H]2CCN(C)[C@@H](c3nc4ccccc4[nH]3)C2)cc1 [Example 53, hydrochloride] on Smoothened (SMO) (Mus musculus) and write it down.
105

Given CN1CC[C@@H](NC(=O)c2cc(-c3ccncc3)n[nH]2)C[C@@H]1c1nc2ccccc2[nH]1 [Example 74, hydrochloride] , report its inhibition at 2 µM on Smoothened (SMO) (Mus musculus).
101
